Consider the following compounds; for each one, report its growth.
System: HCT-15 colon
assay_details: NCI-60 one-dose screen, 48 h (100 = growth as untreated, 0 = no growth, -100 = all killed)
condition_parameters: 10 µM unless noted
Protocol: Growth inhibition of the HCT-15 human tumor cell line is measured as a screen for anti-cancer activity. Cells are grown in 96 well plates and exposed to the test compound for 48 hours. Compounds are tested at a single concentration, which is 10^-5 M for most compounds. The reported endpoint is percent growth (GI% or GIPRCNT), where numbers from 0 - 100% represent growth inhibition, and numbers from -100% - 0 represent cell death. For example, a value of 40 represents 60% growth inhibition. […]
This is part of a sample that, as a whole, favours compounds with a hit. Of some 83,000 tested, about 20% had one in any assay.
// return numeric value only (unit: %, not printed)

Query string: Find growth (HCT-15 colon) for the entry COc1ccc(C(=O)C2CC2c2ccc(Cl)cc2)cc1 (centres undefined)
Result string: 97.9

Query string: Find growth (HCT-15 colon) for the entry `Cc1[nH]c2ccccc2c(=O)c1CC=C(Cl)Cl`
Result string: 3.43

Query string: Find growth (HCT-15 colon) for the entry `O=C(Nc1ccc(Cl)cc1)N1CCN(c2ccc3nncn3n2)CC1`
Result string: 0.448

Query string: Find growth (HCT-15 colon) for the entry `COC(=O)/C(CCC=C(C)C)=C1\[C@@H](OC(C)=O)C[C@@]2(C)[C@H]1CC(=O)[C@H]1[C@@]3(C)CC[C@H](NCc4ccccc4)[C@@H](C)[C@@H]3CC[C@@]12C`
Result string: 72.1

Query string: Find growth (HCT-15 colon) for the entry `CCOC(=O)c1ccc2[nH]c(-c3ccccc3)cc(=O)c2c1`
Result string: 92.8

Query string: Find growth (HCT-15 colon) for the entry OC(c1ccccc1)c1nnc(SCc2ccccc2)n1Cc1ccccc1 (centres undefined)
Result string: 88.9

Query string: Find growth (HCT-15 colon) for the entry `Cn1nc(C(F)(F)F)c(-c2ccc(Cl)c(C(F)(F)F)c2)c1-c1ccc(OCc2ccc(Cl)cc2)cc1O`
Result string: 8.53

Query string: Find growth (HCT-15 colon) for the entry CC(=O)SC1CC(=O)C=C2CCC3C4CCC(=O)OC4(C)CCC3C21C (centres undefined)
Result string: 106

Query string: Find growth (HCT-15 colon) for the entry CCN1C(=O)N(c2ccccc2)C2Nn3c(s/c(=C4\C(=O)N(C(C)C)c5ccccc54)c3=O)=NC21 (centres undefined)
Result string: 108

* * *

System: TK-10 renal
assay_details: NCI-60 one-dose screen, 48 h (100 = growth as untreated, 0 = no growth, -100 = all killed)
condition_parameters: 10 µM unless noted
Protocol: Growth inhibition of the TK-10 human tumor cell line is measured as a screen for anti-cancer activity. Cells are grown in 96 well plates and exposed to the test compound for 48 hours. Compounds are tested at a single concentration, which is 10^-5 M for most compounds. The reported endpoint is percent growth (GI% or GIPRCNT), where numbers from 0 - 100% represent growth inhibition, and numbers from -100% - 0 represent cell death. For example, a value of 40 represents 60% growth inhibition. […]
Compounds without any hit were thinned out: in the full panel of roughly 83,000, 20% have a hit.
Consider the following compounds; for each one, report its growth.
// return numeric value only (unit: %, not printed)

Query string: Find growth (TK-10 renal) for the entry `COc1cc(-c2c3c(cn2S(=O)(=O)c2ccccc2)-c2nc(N)sc2CC3)cc(OC)c1OC`
Result string: 53.4

Query string: Find growth (TK-10 renal) for the entry `CC(C)[C@H](NC(=O)Cn1cc(C(=O)O)nn1)C(=O)O`
Result string: 115

Query string: Find growth (TK-10 renal) for the entry `CC(=O)c1ccc(Nc2nc(NCCO)nc(Nc3ccc(Cl)cc3)n2)cc1`
Result string: 108

Query string: Find growth (TK-10 renal) for the entry COc1cccc(C(=O)NC(c2ccc(C)cc2)c2cc(Cl)c3cccnc3c2O)c1 (stereo not given)
Result string: 27

Query string: Find growth (TK-10 renal) for the entry `COc1cc(-c2c3c(c(Br)n2Cc2ccccc2)-c2nc(N)sc2CC3)cc(OC)c1OC`
Result string: 119

Query string: Find growth (TK-10 renal) for the entry OC(c1ccccc1)c1nnc(SCc2ccccc2)n1Cc1ccccc1 (stereo not given)
Result string: 103

Query string: Find growth (TK-10 renal) for the entry COc1ccc(-c2nsc3c2NC(=O)CC3c2cccc(OC)c2)cc1 (stereo not given)
Result string: 61.9

Query string: Find growth (TK-10 renal) for the entry `NCCOc1ncccc1/C=C1\c2ccccc2-c2ccc(F)cc21`
Result string: 22.4

Query string: Find growth (TK-10 renal) for the entry `O=C1/C(=C/c2ccc(O)cc2)COc2ccc(O)cc21`
Result string: 115

Query string: Find growth (TK-10 renal) for the entry `O=C(NC(=S)Nc1cccc(NC(=S)NC(=O)c2ccccc2)c1)c1ccccc1`
Result string: 75.8

* * *

Test system: OVCAR-5 ovarian
assay_details: NCI-60 one-dose screen, 48 h
condition_parameters: 10 µM unless noted
This is part of a sample that, as a whole, favours compounds with a hit. Of some 83,000 tested, about 20% had one in any assay. The source made the active and inactive calls. Rule for the calls: active = growth percent below 10; inactive = the rest.
Hi! Could you answer with just one of these? TRUE = active, FALSE = inactive

Query string: Would you mind telling me which call this test gave `O=C1c2cc(Cl)ccc2Oc2cc([N+](=O)[O-])ccc2N1c1ccc(F)cc1F` ?
Result string: FALSE

Query string: Would you mind telling me which call this test gave `CCCCc1ccc(NS(=O)(=O)c2cc3c4c(c2)CCN4C(=O)CC3)cc1` ?
Result string: FALSE

Query string: Would you mind telling me which call this test gave `COc1ccc(S(=O)(=O)N(Cc2ccc3c(n2)C=CC(C)(C)O3)C2CCC2)cc1OC` ?
Result string: FALSE

Query string: Would you mind telling me which call this test gave `COc1cc(/C=C2\CN(C)C/C(=C\c3cc(CN4CCCCC4)c(O)c(OC)c3)C2=O)cc(CN2CCCCC2)c1O` ?
Result string: FALSE

Query string: Would you mind telling me which call this test gave `CCOC(=O)c1cc2c(n1Cc1ccccc1)-c1oncc1CCC2` ?
Result string: FALSE

Query string: Would you mind telling me which call this test gave `CN(C)c1ccc(/C=C/c2ccnc3c(O)cccc23)cc1` ?
Result string: FALSE

Query string: Would you mind telling me which call this test gave `COc1ccc(OC)c(NC(=O)/C(C#N)=C/c2ccco2)c1` ?
Result string: FALSE

Query string: Would you mind telling me which call this test gave `Cc1c(-c2csc(-n3nc(C(F)(F)F)cc3C(F)(F)F)n2)no[n+]1[O-]` ?
Result string: FALSE

Query string: Would you mind telling me which call this test gave `COC(=O)/C(=C\c1c(C)[nH]c2ccccc12)S(=O)(=O)c1ccccc1` ?
Result string: FALSE

Query string: Would you mind telling me which call this test gave O=C(CN1C=NC2C(N3CCOCC3)=NC=NC21)c1ccc(Br)cc1 (stereo unspecified) ?
Result string: FALSE

Query string: Would you mind telling me which call this test gave O=C(Nc1ncc(Cc2cccc(C(F)(F)F)c2)s1)C1COc2ccccc2O1 (stereo unspecified) ?
Result string: FALSE

Query string: Would you mind telling me which call this test gave OC(c1ccccc1)c1nnc(SCc2ccccc2)n1Cc1ccccc1 (stereo unspecified) ?
Result string: FALSE

Query string: Would you mind telling me which call this test gave CCCCC(O)(c1ccc(Cl)cc1)C(CN1CCOCC1)c1ccc(Cl)cc1 (stereo unspecified) ?
Result string: FALSE

Query string: Would you mind telling me which call this test gave `COc1c(B(O)O)cccc1-c1nc2ccc3n[nH]c(F)c3c2c2c1CCCC2` ?
Result string: FALSE

Query string: Would you mind telling me which call this test gave `Brc1ccc(Nc2nc3ccccc3nc2Nc2ccc(Br)cc2)cc1` ?
Result string: TRUE

Query string: Would you mind telling me which call this test gave `CC/C=C\C[C@H](O)C/C=C1/C(=O)C=C[C@@H]1C/C=C\CCCC(=O)OCCS(=O)(=O)c1ccccc1` ?
Result string: FALSE

Query string: Would you mind telling me which call this test gave O=CCCCC(O)C=O (stereo unspecified) ?
Result string: FALSE

Query string: Would you mind telling me which call this test gave `CCOC(=O)c1cnc2c(C)cccc2c1Nc1ccc(C(C)=O)cc1` ?
Result string: FALSE

Query string: Would you mind telling me which call this test gave `CCOc1cccc(/C=N/NC(=O)C(=O)Nc2cccc(C(F)(F)F)c2)c1O` ?
Result string: FALSE

Query string: Would you mind telling me which call this test gave `O=C(c1ccccc1)N(C(=S)NCCc1ccc(Cl)cc1)c1ccc(Cl)cc1` ?
Result string: FALSE

Query string: Would you mind telling me which call this test gave COc1ccc(-n2c(C(O)c3ccccc3)nn(CN3CCOCC3)c2=S)cc1 (stereo unspecified) ?
Result string: FALSE

* * *

System: DU-145 prostate
assay_details: NCI-60 one-dose screen, 48 h (100 = growth as untreated, 0 = no growth, -100 = all killed)
condition_parameters: 10 µM unless noted
The panel holds about 83,000 compounds, 20% with a hit somewhere; the sample as a whole holds those more often.
parameter: growth (%)
// return numeric value only (unit: %, not printed)

Query string: Would you mind telling me what growth value was observed for O=C(NC1C(O)OC(CO)C(O)C1O)NS(=O)(=O)c1ccc(Cl)cc1 (centres undefined) ?
Result string: 108

Query string: Would you mind telling me what growth value was observed for `O=C(Nc1ccc(C23CC4CC(CC(c5ccccc5)(C4)C2)C3)cc1)c1cccs1` ?
Result string: 84.7

Query string: Would you mind telling me what growth value was observed for `CC(C)[C@H](NC(=O)Cn1cc(C(=O)O)nn1)C(=O)O` ?
Result string: 114

Query string: Would you mind telling me what growth value was observed for `Cc1ccc(S(=O)(=O)c2c(COC(=O)c3cccc(C)c3)c(-c3ccccc3)nn2C)cc1` ?
Result string: 116

Query string: Would you mind telling me what growth value was observed for `COC(=O)[C@@H]1CCCN1C(=O)[C@H]1CCCN1C(=O)[C@@H](Cc1c[nH]c2ccccc12)NC(=S)Nc1cc(C(F)(F)F)cc(C(F)(F)F)c1` ?
Result string: 57.7

Query string: Would you mind telling me what growth value was observed for `Clc1ncccc1Nc1ccc2nnc(-c3ccncc3)n2n1` ?
Result string: 107

Query string: Would you mind telling me what growth value was observed for COC(=O)[C@H](NC(=O)C1(C)CCC[C@]2(C)[C@H]3C[C@H]4C(C(C)C)=C[C@]3(CC[C@@H]12)[C@@H]1C(=O)CCC(=O)[C@@H]14)C(C)C (some centres undefined) ?
Result string: 106

Query string: Would you mind telling me what growth value was observed for `Clc1ccc(Nc2scc3[n+]2CCC3)cc1` ?
Result string: 101

Query string: Would you mind telling me what growth value was observed for `CCCc1c(C)c2sc(=O)[nH]c2[nH]c1=O` ?
Result string: 114
